# assay-overview: Acute toxicity in mice, Table 2
# condition-summary: mouse, in vivo, ip
assay-readout: LD50 (mg/kg)
// note: answer is a bare numeric in mg/kg

# input I would be grateful if you could share the reported LD50 for "O=C1CCCN1CC#CCN1CCCC1" .
# output 5

* * *

# tested-target: Guinea-pig ileum (Cavia porcellus, UniProt H0W1Z3)
# Sequence (H0W1Z3 1-590): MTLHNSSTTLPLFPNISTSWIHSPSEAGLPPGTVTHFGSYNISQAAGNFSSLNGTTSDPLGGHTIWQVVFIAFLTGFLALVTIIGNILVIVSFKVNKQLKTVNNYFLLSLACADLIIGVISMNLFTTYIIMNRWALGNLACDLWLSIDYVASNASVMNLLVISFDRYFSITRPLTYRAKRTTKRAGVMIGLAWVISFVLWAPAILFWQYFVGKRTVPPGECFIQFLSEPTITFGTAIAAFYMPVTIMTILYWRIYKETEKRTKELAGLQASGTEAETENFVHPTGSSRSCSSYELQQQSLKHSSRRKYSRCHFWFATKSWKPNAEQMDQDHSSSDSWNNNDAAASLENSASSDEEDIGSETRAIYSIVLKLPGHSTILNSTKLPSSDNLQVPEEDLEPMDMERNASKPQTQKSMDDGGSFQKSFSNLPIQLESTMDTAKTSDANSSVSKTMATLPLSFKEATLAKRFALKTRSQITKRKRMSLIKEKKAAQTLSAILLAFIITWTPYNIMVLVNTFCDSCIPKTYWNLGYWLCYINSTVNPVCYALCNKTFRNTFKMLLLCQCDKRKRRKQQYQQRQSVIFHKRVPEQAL
Counter-ions that a name gives are not always drawn.
assay-readout: pKi
Kindly note that pKi refers to -log10 of the concentration in mol/L and answer with the value alone.

# input Form entry - test system: Guinea-pig ileum (Cavia porcellus, UniProt H0W1Z3); read-out: pKi; compound: c1ccc(C2(c3ccccc3)OCC3(CN4CCC3CC4)O2)cc1 (stereo not shown) [I,R1 =R2 =phenyl,HCl]
# output 9.60

* * *

# assay-overview: Acute toxicity in mice, Table 2
# condition-summary: mouse, in vivo, sc
Counter-ions that a name gives are not always drawn.
# reported LD50; entries follow
// note: answer is a bare numeric in mg/kg

molecule	numeric-result
CC(=O)OC1CN2CCC1CC2 (centres unmarked)	112

# input I would be grateful if you could share the reported LD50 for CC1OCC2(CN3CCC2CC3)O1 (centres unmarked) [I,R1 =H,R2 =-CH3.HCl] .
# output 220

* * *

# assay-overview: LD50 in mice, Table 3
# condition-summary: mouse, in vivo, sc
Where a name gives a salt, the structure may show the parent alone.
assay-readout: LD50 (mg/kg)
// note: answer is a bare numeric in mg/kg

# input I would be grateful if you could share the reported LD50 for c1ccc(C2(c3ccccc3)OCC3(CN4CCC3CC4)O2)cc1 (stereo not shown) [I,R1 =R2 =phenyl,HCl] .
# output 40
